molecular target: UniProt Q9NYK1; experiment: Agonist activity at human TLR7
Sequence (Q9NYK1 whole entry): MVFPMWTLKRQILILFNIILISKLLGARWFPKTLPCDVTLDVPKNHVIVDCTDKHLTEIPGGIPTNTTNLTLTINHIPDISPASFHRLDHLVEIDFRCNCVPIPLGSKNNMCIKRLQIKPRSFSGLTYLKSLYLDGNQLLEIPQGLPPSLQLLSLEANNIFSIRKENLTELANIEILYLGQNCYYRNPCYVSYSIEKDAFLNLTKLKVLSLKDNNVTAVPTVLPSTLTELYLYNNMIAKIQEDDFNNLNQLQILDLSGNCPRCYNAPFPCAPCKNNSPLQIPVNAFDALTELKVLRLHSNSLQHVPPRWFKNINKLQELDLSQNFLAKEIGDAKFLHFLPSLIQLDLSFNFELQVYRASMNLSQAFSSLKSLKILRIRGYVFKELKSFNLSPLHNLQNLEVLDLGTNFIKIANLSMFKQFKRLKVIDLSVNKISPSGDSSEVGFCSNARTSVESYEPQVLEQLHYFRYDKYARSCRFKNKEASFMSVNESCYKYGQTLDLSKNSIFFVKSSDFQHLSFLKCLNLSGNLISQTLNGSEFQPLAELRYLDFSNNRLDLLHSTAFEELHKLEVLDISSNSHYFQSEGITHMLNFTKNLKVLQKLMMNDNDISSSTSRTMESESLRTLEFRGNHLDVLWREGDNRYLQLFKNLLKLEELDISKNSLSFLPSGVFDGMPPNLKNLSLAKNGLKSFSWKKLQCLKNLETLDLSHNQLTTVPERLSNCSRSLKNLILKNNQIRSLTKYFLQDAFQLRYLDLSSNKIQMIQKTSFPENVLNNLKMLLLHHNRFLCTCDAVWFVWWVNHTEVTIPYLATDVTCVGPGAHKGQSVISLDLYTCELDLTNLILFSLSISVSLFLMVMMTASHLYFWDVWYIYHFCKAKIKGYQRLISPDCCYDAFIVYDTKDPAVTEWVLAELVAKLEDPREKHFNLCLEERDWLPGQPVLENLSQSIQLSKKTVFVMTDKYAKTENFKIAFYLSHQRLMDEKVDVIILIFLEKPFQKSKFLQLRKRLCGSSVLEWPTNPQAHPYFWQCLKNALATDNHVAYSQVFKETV
pEC50: −log10 of the molar value.

{"query.smiles": "CC(C)Cn1cnc2c(N)nc3ccccc3c21", "pEC50": 5.66}

----------
biological target: Toll-like receptor 8 (Homo sapiens); assay: Agonist activity at human TLR8 stably expressed in human HEK-Blue hTLR8 cells assessed as activation of NFkappaB by SAP reporter gene based spectrophotometric assay
Sequence (Q9NR97 whole entry): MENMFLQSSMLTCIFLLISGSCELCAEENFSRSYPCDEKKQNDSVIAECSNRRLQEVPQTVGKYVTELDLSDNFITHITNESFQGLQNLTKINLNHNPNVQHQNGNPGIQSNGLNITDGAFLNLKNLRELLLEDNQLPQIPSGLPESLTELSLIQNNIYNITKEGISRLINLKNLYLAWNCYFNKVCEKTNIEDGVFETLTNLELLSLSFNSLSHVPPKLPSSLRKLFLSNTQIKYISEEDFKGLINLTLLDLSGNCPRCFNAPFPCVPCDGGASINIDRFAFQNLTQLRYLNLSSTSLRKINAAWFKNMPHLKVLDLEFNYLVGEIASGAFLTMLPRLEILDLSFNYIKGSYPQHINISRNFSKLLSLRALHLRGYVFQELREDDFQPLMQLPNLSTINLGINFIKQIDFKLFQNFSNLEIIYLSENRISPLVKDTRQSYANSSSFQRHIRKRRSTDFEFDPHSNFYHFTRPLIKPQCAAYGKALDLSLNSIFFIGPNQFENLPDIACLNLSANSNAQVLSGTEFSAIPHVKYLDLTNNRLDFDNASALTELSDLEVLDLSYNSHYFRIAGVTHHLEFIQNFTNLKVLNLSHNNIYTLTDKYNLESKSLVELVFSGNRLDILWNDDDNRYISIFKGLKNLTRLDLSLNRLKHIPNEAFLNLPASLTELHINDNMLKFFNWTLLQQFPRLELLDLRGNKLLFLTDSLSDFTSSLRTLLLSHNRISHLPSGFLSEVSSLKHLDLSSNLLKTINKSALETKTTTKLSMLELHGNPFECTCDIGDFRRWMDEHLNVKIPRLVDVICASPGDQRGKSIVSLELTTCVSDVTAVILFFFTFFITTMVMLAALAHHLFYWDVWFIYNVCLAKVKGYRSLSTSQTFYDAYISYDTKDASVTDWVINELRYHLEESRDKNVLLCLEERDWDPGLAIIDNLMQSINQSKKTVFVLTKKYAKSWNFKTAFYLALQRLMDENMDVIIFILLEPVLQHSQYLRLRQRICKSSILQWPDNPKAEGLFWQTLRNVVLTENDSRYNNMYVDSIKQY
pEC50: −log10 of the molar value.

{"query.smiles": "CCCCc1nc2c(N)nc3ccccc3c2s1", "pEC50": 6.39}

Cited source for all entries: ChEMBL document CHEMBL5226312
